molecular target: BTK enzyme (recombinant full-length BTK, hBTK) (Homo sapiens (Human), UniProt Q06187); experiment: BTK enzymatic activity LANCE TR-FRET assay; details: 50 pM hBTK, 25 μM ATP, 2 μM biotin-A5-peptide; compound range 1 μM to 0.017 nM; read-out: BTK binding IC50
Sequence (Q06187 whole entry): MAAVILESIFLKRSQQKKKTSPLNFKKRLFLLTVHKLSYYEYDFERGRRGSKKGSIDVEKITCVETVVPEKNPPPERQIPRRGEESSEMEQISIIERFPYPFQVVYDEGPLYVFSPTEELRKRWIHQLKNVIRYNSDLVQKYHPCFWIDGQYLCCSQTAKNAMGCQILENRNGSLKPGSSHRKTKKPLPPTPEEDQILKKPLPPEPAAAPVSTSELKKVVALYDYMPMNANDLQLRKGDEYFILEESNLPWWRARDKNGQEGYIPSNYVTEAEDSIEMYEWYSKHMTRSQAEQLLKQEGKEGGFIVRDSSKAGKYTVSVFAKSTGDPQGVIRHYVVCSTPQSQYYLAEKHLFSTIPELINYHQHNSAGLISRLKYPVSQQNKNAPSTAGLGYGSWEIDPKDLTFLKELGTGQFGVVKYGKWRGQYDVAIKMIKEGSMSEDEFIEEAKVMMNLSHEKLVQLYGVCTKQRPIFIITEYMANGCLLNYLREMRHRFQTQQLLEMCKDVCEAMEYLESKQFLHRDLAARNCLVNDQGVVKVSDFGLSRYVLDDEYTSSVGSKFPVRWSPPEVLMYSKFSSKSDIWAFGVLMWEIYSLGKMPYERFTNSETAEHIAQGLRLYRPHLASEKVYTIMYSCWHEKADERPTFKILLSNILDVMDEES
Listed here are compounds together with their documented IC50.
Please give a number only; it is taken to be in nM.

The cases that follow already have their IC50 on record.
{"COMPOUND": "CCOc1cc(C(C)(O)c2cccc(C(F)(F)F)c2)ccc1-c1nc([C@@H]2CC[C@H]3CCC(=O)N3C2)n2ccnc(N)c12 (stereo partly drawn) [Example 167]", "IC50 [nM]": 20.6}
{"COMPOUND": "Cc1cc(-c2nc([C@@H]3CC[C@H]4CCC(=O)N4C3)n3ccnc(N)c23)ccc1C(C)(O)c1cccc(C(F)(F)F)c1 (stereo partly drawn) [Example 43]", "IC50 [nM]": 1000}

Proceeding to the next compound to report its IC50.
Input line: Return reported IC50; argument: Cc1ccc(C(F)(F)F)cc1C(O)c1ccc(-c2nc([C@@H]3CC[C@H]4CCC(=O)N4C3)n3ccnc(N)c23)cc1 (stereo partly drawn) [Example 127]
Output line: 459

* * *

system: adenosine uptake into HeLa cells; assay: [3H]Adenosine uptake assay in HeLa cells; format: cell-based; conditions: Homo sapiens, HeLa, [3H]adenosine accumulation in HeLa cells; compound range 10 μM to 0.032 nM; read-out: ADU inhibition IC50
EXPERIMENTAL READOUT: pIC50
Please keep in mind that pIC50 is minus log10 of the molar concentration; only the number is needed.

{"COMPOUND": "COc1cc(-c2nc([C@@H]3CC[C@H]4CCC(=O)N4C3)n3ccnc(N)c23)ccc1[C@@](C)(O)c1cccc(C2CC2)c1 [Example 99]", "pIC50": 5.93}
{"COMPOUND": "C[C@@](O)(c1ccc(-c2nc([C@@H]3CC[C@H]4CCC(=O)N4C3)n3ccnc(N)c23)cc1)c1cccc(C(F)(F)F)c1 [Example 3]", "pIC50": 6.39}
{"COMPOUND": "C[C@](O)(c1ccc(-c2nc([C@@H]3CC[C@H]4CCC(=O)N4C3)n3c(Cl)cnc(N)c23)cc1)c1cccc(C2CC2)c1 [Example 116]", "pIC50": 6.34}
{"COMPOUND": "C[C@@](O)(c1ccc(-c2nc([C@@H]3CC[C@H]4CCC(=O)N4C3)n3ccnc(N)c23)cc1)c1cc(C(F)(F)F)ccn1 [Example 37]", "pIC50": 5.46}

Input line: Recall the recorded pIC50 for C[C@@](O)(c1ccc(-c2nc([C@@H]3CC[C@H]4CCC(=O)N4C3)n3ccnc(N)c23)cc1)c1cccc(C(F)(F)F)n1 [Example 138] with adenosine uptake into HeLa cells and state it.
Output line: 5.32

Input line: Recall the recorded pIC50 for CO[C@](C)(c1ccc(-c2nc([C@@H]3CC[C@H]4CCC(=O)N4C3)n3ccnc(N)c23)cc1)c1cccc(C(F)(F)F)c1 [Example 89] with adenosine uptake into HeLa cells and state it.
Output line: 5.46

* * *

Listed here are molecules together with their documented pIC50.
molecular target: BTK enzyme (recombinant full-length BTK, hBTK) (Homo sapiens (Human)); assay: BTK enzymatic activity LANCE TR-FRET assay; conditions: 50 pM hBTK, 25 μM ATP, 2 μM biotin-A5-peptide; compound range 1 μM to 0.017 nM; read-out: BTK binding IC50
Please keep in mind that pIC50 is minus log10 of the molar concentration; only the number is needed.

The cases that follow already have their pIC50 on record.
{"MOLECULE": "C[C@](O)(c1ccc(-c2nc([C@@H]3CC[C@H]4CCC(=O)N4C3)n3ccnc(N)c23)cc1)c1ccnc(C(F)(F)F)c1", "pIC50": 6.00}
{"MOLECULE": "CC1(C)C[C@@H]2CC[C@@H](c3nc(-c4ccc(C(C)(O)c5cccc(C(F)F)c5)cc4F)c4c(N)nccn34)CN2C1=O (stereo partly shown) [Example 203]", "pIC50": 9.37}

Input line: Return reported pIC50; argument: `CCc1cccc([C@@](C)(O)c2ccc(-c3nc([C@@H]4CC[C@H]5CCC(=O)N5C4)n4ccnc(N)c34)cc2)c1`
Output line: 9.32

Input line: Return reported pIC50; argument: `CC(C)(c1cccc([C@](C)(O)c2ccc(-c3nc([C@@H]4CC[C@H]5CCC(=O)N5C4)n4c(Cl)cnc(N)c34)cc2)c1)C(F)(F)F`
Output line: 8.92

Input line: Return reported pIC50; argument: `CO[C@](C)(c1ccc(-c2nc([C@@H]3CC[C@H]4CCC(=O)N4C3)n3ccnc(N)c23)cc1)c1cccc(C(F)(F)F)c1`
Output line: 6.00

* * *

Listed here are compounds together with their documented pIC50.
test system: adenosine uptake into HeLa cells; test: [3H]Adenosine uptake assay in HeLa cells; type: cell-based; conditions: Homo sapiens, HeLa, [3H]adenosine accumulation in HeLa cells; compound range 10 μM to 0.032 nM; read-out: ADU inhibition IC50
Please keep in mind that pIC50 is minus log10 of the molar concentration; only the number is needed.

The cases that follow already have their pIC50 on record.
{"COMPOUND": "C[C@](O)(c1ccc(-c2nc([C@@H]3CC[C@H]4CCC(=O)N4C3)n3ccnc(N)c23)cc1)c1cccc(C2CC2)c1 [Example 51]", "TARGET OF ASSAY": "adenosine uptake into HeLa cells", "MEAS VALUE": 6.25}
{"COMPOUND": "C[C@@](O)(c1ccc(-c2nc([C@@H]3CC[C@@H]4[C@@H](C(F)(F)F)CC(=O)N4C3)n3ccnc(N)c23)cc1)c1cccc(C(F)(F)F)c1 [Example 172]", "TARGET OF ASSAY": "adenosine uptake into HeLa cells", "MEAS VALUE": 5.27}
{"COMPOUND": "CC(C)(c1cccc([C@@](C)(O)c2ccc(-c3nc([C@@H]4CC[C@H]5CCC(=O)N5C4)n4ccnc(N)c34)cc2)c1)C(F)(F)F [Example 109]", "TARGET OF ASSAY": "adenosine uptake into HeLa cells", "MEAS VALUE": 6.05}

Input line: Return reported pIC50; argument: C[C@](O)(c1ccc(-c2nc([C@@H]3CC[C@H]4CCC(=O)N4C3)n3ccnc(N)c23)cc1)c1cccc(CC(F)(F)F)c1 [Example 77]
Output line: 5.98

Input line: Return reported pIC50; argument: CC(C)(c1cccc([C@](C)(O)c2ccc(-c3nc([C@@H]4CC[C@H]5CCC(=O)N5C4)n4c(Cl)cnc(N)c34)cc2)c1)C(F)(F)F [Example 124]
Output line: 5.84

Input line: Return reported pIC50; argument: C[C@@](O)(c1ccc(-c2nc([C@@H]3CC[C@H]4CCC(=O)N4C3)n3ccnc(N)c23)cc1)c1cccc(-c2ccccc2)c1 [Example 59]
Output line: 5.90

* * *

Molecular target: BTK enzyme (recombinant full-length BTK, hBTK) (Homo sapiens (Human), UniProt Q06187)
Assay: BTK enzymatic activity LANCE TR-FRET assay
Conditions: 50 pM hBTK, 25 μM ATP, 2 μM biotin-A5-peptide; compound range 1 μM to 0.017 nM; read-out: BTK binding IC50
Description: Btk Enzyme Activity Assay Methods BTK enzymatic activity was determined with the LANCE (Lanthanide Chelate Excite) TR-FRET (Time-resolved fluorescence resonance energy transfer) assay. […] After 60 minutes incubation with detection reagents, reaction plates were read on a PerkinElmer EnVision plate reader using standard TR-FRET protocol. […] IC50 values were determined by 4 parameter robust fit of TR-FRET ratio values vs. (Log10) compound concentrations.
EXPERIMENTAL READOUT: pIC50
Please keep in mind that pIC50 is minus log10 of the molar concentration; only the number is needed.

The cases that follow already have their pIC50 on record.
{"COMPOUND": "C[C@@](O)(c1ccc(-c2nc([C@@H]3CC[C@H]4CCC(=O)N4C3)n3ccnc(N)c23)cc1)c1cc(C(F)(F)F)ccn1 [Example 37]", "MEAS VALUE": 6.59}
{"COMPOUND": "C[C@@](O)(c1ccc(-c2nc([C@@H]3CC[C@@H]4N(C3)C(=O)CC43CC3)n3ccnc(N)c23)cc1)c1cccc(C(F)F)c1 [Example 189]", "MEAS VALUE": 9.77}
{"COMPOUND": "CCOc1cc([C@@](C)(O)c2cccc(C(F)(F)F)c2)ccc1-c1nc([C@@H]2CC[C@@H]3N(C2)C(=O)CC3(C)C)n2ccnc(N)c12 [Example 186]", "MEAS VALUE": 8.89}
{"COMPOUND": "Nc1nccn2c([C@@H]3CC[C@H]4CCC(=O)N4C3)nc(-c3ccc([C@](O)(CO)c4cccc(C(F)(F)F)c4)cc3)c12 [Example 107]", "MEAS VALUE": 6.03}
{"COMPOUND": "C[C@@](O)(c1ccc(-c2nc([C@H]3CC[C@@H]4COCC(=O)N4C3)n3ccnc(N)c23)cc1)c1cccc(C(F)(F)F)c1 [Example 156]", "MEAS VALUE": 7.14}

Input line: Return reported pIC50; argument: CC1(C)CC(=O)N2C[C@@H](c3nc(-c4ccc([C@@](C)(O)c5cccc(C(F)(F)F)c5)cc4)c4c(N)nccn34)CC[C@@H]21 [Example 163]
Output line: 6.77

Input line: Return reported pIC50; argument: CC(O)(c1cccc(C(F)(F)F)c1)c1ccc(-c2nc([C@@H]3CC[C@H]4CCC(=O)N4C3)n3ccnc(N)c23)c(C2CC2)c1 (stereo partly shown) [Example 88]
Output line: 6.24

Input line: Return reported pIC50; argument: C[C@](O)(c1ccc(-c2nc([C@@H]3CC[C@H]4CCC(=O)N4C3)n3c(Cl)cnc(N)c23)cc1)c1cccc(C(F)(F)F)c1 [Example 5]
Output line: 6.42

Input line: Return reported pIC50; argument: C[C@@](O)(c1cccc(C(F)(F)F)c1)c1ccc(-c2nc([C@@H]3CC[C@H]4CCC(=O)N4C3)n3ccnc(N)c23)c(CO)c1 [Example 21]
Output line: 8.24

Input line: Return reported pIC50; argument: CC(C)(c1cccc([C@@](C)(O)c2ccc(-c3nc([C@@H]4CC[C@H]5CCC(=O)N5C4)n4c(Cl)cnc(N)c34)cc2)c1)C(F)(F)F [Example 123]
Output line: 6.93
